Data provenance: the supplement of paper PMC10981050

Tested on: MARIMO;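 also: after 48 h exposure read by CellTiter-Glo luminescence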
Assay remarks: cell viability relative to vehicle control; higher = less cytotoxic
Assay setup: 10 µM; SRSF2 genotype: SRSF2 wt/wt
Please respond with reported cell viability for every item in the list.
The response must be a number in % with no trailing unit.

Using the record for COc1ccc(-c2oc3c(CC=C(C)C)c(O[C@@H]4O[C@H](CO)[C@@H](O)[C@H](O)[C@H]4O)cc(O)c3c(=O)c2O[C@@H]2O[C@@H](C)[C@H](O)[C@@H](O)[C@H]2O[C@@H]2O[C@@H](C)[C@H](O)[C@@H](O)[C@H]2O)cc1 , state its measured cell viability. 103

Return reported cell viability. Input compound: Cc1cc(N2C[C@@H](C)N[C@@H](C)C2)ncc1-c1ccc(-c2nc3c(ccn3C)c(=O)[nH]2)cc1 76.4

Specify cell viability for CO/N=C(\C(=O)N[C@@H]1C(=O)N2C(C(=O)O)=C(CSC(=O)c3ccco3)CS[C@H]12)c1csc(N)n1 and stop. 109

Dear colleague, please send me the reported cell viability for Cc1nccn1CCC(C(N)=O)(c1ccccc1)c1ccccc1 when you can. 91.8

# return recorded cell viability for entry CCCCCCCCCC(=O)N[C@@H](Cc1c[nH]c2ccccc12)C(=O)N[C@H](CC(N)=O)C(=O)N[C@@H](CC(=O)O)C(=O)N[C@@H]1C(=O)NCC(=O)N[C@@H](CCCN)C(=O)N[C@@H](CC(=O)O)C(=O)N[C@H](C)C(=O)N[C@@H](CC(=O)O)C(=O)NCC(=O)N[C@H](CO)C(=O)N[C@@H]([C@H](C)CC(=O)O)C(=O)N[C@@H](CC(=O)c2ccccc2N)C(=O)O[C@@H]1C 103

For the compound CO[C@@H](C(=O)N1Cc2[nH]nc(NC(=O)c3ccc(N4CCN(C)CC4)cc3)c2C1)c1ccccc1 , report cell viability. 69.4

Identify the reported cell viability for the following entry. CC(Nc1nc(N2CCCC2)nc2ccccc12)c1ccccc1 (configuration not stated) 64.7
